- SYSTEM: T1, extracellular domain of human CD79b (human, UniProt P40259 29-159)
- T1 construct: also called huCD79becd; huCD79b-ecd
- T1 sequence: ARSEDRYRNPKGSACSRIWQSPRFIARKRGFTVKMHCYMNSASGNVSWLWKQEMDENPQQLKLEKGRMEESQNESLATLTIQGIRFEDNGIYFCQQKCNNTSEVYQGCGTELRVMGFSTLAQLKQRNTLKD
- ASSAY NOTES: phage selection, Fab on phage, plate-bound huCD79becd
READOUT NAME: binding result

- BINDER: "huMA79b graft variant SEQ ID NO: 75 (Fab, name in Kabat numbering, V domains shown, Fab on phage; rest as huMA79b graft) VH: EVQLVESGGGLVQPGGSLRLSCAASGYSFRRYWIEWVRQAPGKGLEWVGEILPGGGDTNYNEIFKGRFTISADTSKNTAYLQMNSLRAEDTAVYYCTRRVPVYFDYWGQGTLVTVSS VL: DIQMTQSPSSLSASVGDRVTITCKASQSVDYDGDSFLNWYQQKPGKAPKLLIYAASNLESGVPSRFSGSGSGTDFTLTISSLQPEDFATYYCQQSNEDPLTFGQGTKVEIKR"
  TEST RESULT: "binds"
- BINDER: "huMA79b graft variant SEQ ID NO: 105 (Fab, name in Kabat numbering, V domains shown, Fab on phage; rest as huMA79b graft) VH: EVQLVESGGGLVQPGGSLRLSCAASGYTFSSYWIEWVRQAPGKGLEWVGEILPGGGDTNYNEIFKGRFTISADTSKNTAYLQMNSLRAEDTAVYYCTRRRPVCLDYWGQGTLVTVSS VL: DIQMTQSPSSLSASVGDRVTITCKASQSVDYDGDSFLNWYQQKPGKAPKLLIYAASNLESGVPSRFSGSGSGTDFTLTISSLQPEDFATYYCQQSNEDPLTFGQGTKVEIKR"
  TEST RESULT: "binds"
- BINDER: "huMA79b graft variant SEQ ID NO: 70 (Fab, name in Kabat numbering, V domains shown, Fab on phage; rest as huMA79b graft) VH: EVQLVESGGGLVQPGGSLRLSCAASGYTFTSYWIEWVRQAPGKGLEWVGEILPGGGDTNYNEIFKGRFTISADTSKNTAYLQMNSLRAEDTAVYYCTRRVPVYFDYWGQGTLVTVSS VL: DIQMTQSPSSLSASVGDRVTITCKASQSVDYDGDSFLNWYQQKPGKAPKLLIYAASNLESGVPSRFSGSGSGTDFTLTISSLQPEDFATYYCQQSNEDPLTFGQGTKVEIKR"
  TEST RESULT: "binds"
